Target: T1, human GIP receptor (human) (UniProt P48546)
T1 sequence (looked up): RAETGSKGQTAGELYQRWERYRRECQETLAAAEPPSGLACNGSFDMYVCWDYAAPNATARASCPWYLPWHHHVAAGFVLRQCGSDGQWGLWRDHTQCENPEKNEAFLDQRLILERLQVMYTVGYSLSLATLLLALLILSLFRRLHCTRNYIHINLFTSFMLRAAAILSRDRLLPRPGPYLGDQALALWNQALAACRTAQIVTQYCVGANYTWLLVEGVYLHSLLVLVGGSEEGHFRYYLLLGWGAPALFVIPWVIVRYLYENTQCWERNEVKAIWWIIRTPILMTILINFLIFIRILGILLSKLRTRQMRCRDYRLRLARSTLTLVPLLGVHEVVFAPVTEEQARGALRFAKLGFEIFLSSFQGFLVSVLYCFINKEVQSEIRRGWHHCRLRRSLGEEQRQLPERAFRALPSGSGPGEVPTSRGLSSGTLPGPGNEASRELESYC
Test: cell-based or functional assay
Starred links: 1 amine or outer side, 2 acyl side, 3 side chain; linkers in the order of their positions; H or OH if unused. Non-standard residues stand in square brackets, D forms with d. Groups on a side chain read outwards from the residue. No end group written: not given here. *: point of attachment. C20 diacid = O=C(O)CCCCCCCCCCCCCCCCCCC(=O)*; γGlu = O=C(O)[C@H](CCC(=O)[*:2])N[*:1]; NMeY = CN[C@@H](Cc1ccc(O)cc1)C(=O)O; αMeF = C[C@](N)(Cc1ccccc1)C(=O)O; αMeL = CC(C)C[C@](C)(N)C(=O)O; AEEA = NCCOCCOCC(=O)O; Aib = CC(C)(N)C(=O)O
Measured Metric: log10 cAMP Rel EC50 (1% HSA) (log10 of the value in nM)
Base-10 log of cAMP Rel EC50 (1% HSA), unit nM.

# log10 cAMP Rel EC50 (1% HSA) lookup, item [NMeY][Aib]QGT[αMeF]TSDYSILLDKQAAKAFVQWLIAGGPSSGEPPPSEG-NH2 (not fully specified (residue 20)) [Example 301]
1.91

Next up: YXQGTXTSDXSIXLDXKAQXXFIEXLIEGGPSSGEPPPETE (synthetic construct; SITE 2: note = 2-Aminoisobutyric Acid; SITE 6: note = alpha-methyl-2-fluoro-L-phenylalanine; SITE 10: note = 3-(4-Pyridyl)-L-alanine; SITE 13: note = alpha-methyl-leucine; SITE 16: note = L-ornithine; SITE 17: note = Lysine is chemically modified through conjugation of the epsil) [Example 686]
-0.27

Next up: YXQGTFTSDXSQXLDKKAQXAFIEYLIEXGPSSGAPPPSGS (non-natural residues; C18 diacid-e-γGlu-e on Lys; C-terminal amide; synthetic construct; SITE 2: note = 2-Aminoisobutyric Acid; SITE 10: note = 3-(4-Pyridyl)-L-alanine; SITE 13: note = alpha-methyl-leucine; SITE 17: note = Lysine is chemically modified through conjugation of the epsilon-amino group of the Lysine side chain with D-Glutamic acid-(gamma-Glu)-D-Glutamic) [Example 923]
1.27

Next up: [NMeY][Aib]QGT[αMeF]TSDYSILLDKIAAKAFVQWLIAGGPSSGEPPPSEG-NH2 (not fully specified (residue 20)) [Example 300]
1.11

Next up: YXQGTXTSDXXIXLDXKAQXXFIEYLIEGGPSSGEPPPSGT (synthetic construct; SITE 2: note = 2-Aminoisobutyric Acid; SITE 6: note = alpha-methyl-2-fluoro-L-phenylalanine; SITE 10: note = 3-(4-Pyridyl)-L-alanine; SITE 11: note = alpha-methyl-L-serine; SITE 13: note = alpha-methyl-leucine; SITE 16: note = L-ornithine; SITE 17: note = Lysine is chemically mo) [Example 502]
0.38

Next up: [NMeY][Aib]QGT[αMeF]TSDYSILLDKIAAKAFIEYLIEGGPSSGEPPPSEG-NH2 (not fully specified (residue 20)) [Example 299]
1.60

Next up: Y[Aib]QGTFTSDYSI[αMeL]LDKQAAK([AEEA-AEEA-γGlu-C20 diacid])QFVEWLIAGGPSSGEPPPAEG-NH2 [Example 332]
1.89

Next up: YXQGTFTSDXSQXLDXKAQXAFIEYLIQXGPSSGEPPPSGSEE (not fully specified; non-natural residues, γGlu-C18 diacid acyl on K, C-terminal amide; synthetic construct; SITE 2: note = 2-Aminoisobutyric Acid; SITE 10: note = 3-(4-Pyridyl)-L-alanine; SITE 13: note = alpha-methyl-leucine; SITE 16: note = L-ornithine; SITE 17: note = Lysine is chemically modified through conjugation of the epsilon-amino group of the Lysine side chain with D-Glutami) [Example 1102]
0.71

Next up: YXQGTXTSDXSIXLDKKAQXXFIEYLAEGGPSSGEPPPEGSEE (synthetic construct; SITE 2: note = 2-Aminoisobutyric Acid; SITE 6: note = alpha-methyl-2-fluoro-L-phenylalanine; SITE 10: note = 3-(4-Pyridyl)-L-alanine; SITE 13: note = alpha-methyl-leucine; SITE 17: note = Lysine is chemically modified through conjugation of the epsilon-amino group of the Lysine) [Example 650]
0.49

Next up: YXQGTXTSDXXIXLDXKAQXEFIEXLIEGGPSSGEPPPTGE (Non-natural residues; K acylated AEEA-γGlu-C18 diacid; C-terminal amide; synthetic construct; SITE 2: note = 2-Aminoisobutyric Acid; SITE 6: note = alpha-methyl-2-fluoro-L-phenylalanine; SITE 10: note = 3-(4-Pyridyl)-L-alanine; SITE 11: note = alpha-methyl-L-serine; SITE 13: note = alpha-methyl-leucine; SITE 16: note = L-ornithine; SITE 17: note = Lysine is chemically mo) [Example 1143]
-0.12

Next up: YXQGTFTSDXSQXLDXKAQXAFIQXLIAXGPSSGEPPPSGGGE (Lys acylated γGlu-C18 diacid; non-natural residues; C-amide; synthetic construct; SITE 2: note = 2-Aminoisobutyric Acid; SITE 10: note = 3-(4-Pyridyl)-L-alanine; SITE 13: note = alpha-methyl-leucine; SITE 16: note = L-ornithine; SITE 17: note = Lysine is chemically modified through conjugation of the epsilon-amino group of the Lysine side chain with D-Glutami) [Example 1130]
0.57
